Origin of values: patent US20220324835A1

System: T-cell
experimental_details: CD25 cell surface staining on T-cells stimulated with anti-CD3 antibody alone (Biological Example 2)
Type: cell-based, human
test_parameters: Homo sapiens, T-cell; 1 μM Cbl-b inhibitor; fold change over baseline (anti-CD3/anti-CD28 stimulated T-cells without inhibitor); read-out: CD25 staining Anti-CD3 stimulation
Reported values of fold induction at 1 µM for individual entries
reported_endpoint: fold induction at 1 µM

compound	reported_endpoint	test_result
CC1C(C(F)(F)F)CCN1Cc1cc2c(c(C(F)(F)F)c1)CN(c1cccc(C3(Cc4nncn4C)COC3)c1)C2=O (stereo not shown)	fold induction at 1 µM	> 1
C[C@H](c1cc2c(c(C(F)(F)F)c1)CN(c1cccc(C3(Cc4nncn4C)COC3)c1)C2=O)N1CC(F)C1 [Example 668a]	fold induction at 1 µM	> 1
C[C@H](Cc1nncn1C)c1cc(-c2cn[nH]c2)nc(N2Cc3c(cccc3C(F)(F)F)C2=O)c1	fold induction at 1 µM	< 0.6
Cn1cnnc1CC1(c2cccc(N3Cc4c(cc(CN5CCCc6c5cnn6C)cc4C(F)(F)F)C3=O)c2)COC1	fold induction at 1 µM	> 1

----------
Listed next: entries and their corresponding pIC50.
study_target: UniProtKB Q13191
experimental_details: Cbl-b activity assay (Cbl-b inhibition assay), TR-FRET of Cbl-b interaction with UbcH5B-Ub
Assay type: biochemical
test_parameters: assay buffer with 100 mM NaCl, 60 nM Src kinase; read-out: Cbl-b activity IC50
pIC50: −log10 of the molar value.

compound	study_target	pIC50
Cn1cnnc1CC1(c2cccc(NC(=O)c3cc(N4CC(C(F)F)C4)nc(C4CC4)n3)c2)COC1 [Example 610]	UniProtKB Q13191	> 7.00
C[C@H](Cc1nncn1C)c1cc(N2Cc3c(cccc3C(F)(F)F)C2=O)ccc1F [Compound 280]	UniProtKB Q13191	5.00 to 5.52
C[C@H](Cc1nncn1C)c1cccc(NC(=O)c2cc(C(=O)NC3CCOC3)ccn2)c1 (stereo partly shown) [Compound 228]	UniProtKB Q13191	5.00 to 5.52
C[C@H](Sc1nncn1C)c1cccc(NC(=O)c2cncc(C(F)(F)F)n2)c1 [Compound 77]	UniProtKB Q13191	6.00 to 6.52

----------
Reported pIC50 by item:
study_target: Cbl-b (Homo sapiens)
experimental_details: Cbl-b inhibition assay (Cbl-b activity assay, FRET, Biological Example 1; 100 mM NaCl, 60 nM Src kinase)
Assay type: biochemical
test_parameters: upper bound stated in text lists; read-out: IC50 values in the Cbl-b inhibition assay of Biological Example 1
pIC50: −log10 of the molar value.

compound	study_target	pIC50
Cn1cnnc1CC1(c2cccc(N3Cc4c(cc(CN5CC(F)C5)cc4C(F)(F)F)C3=O)c2)COC1	Cbl-b (Homo sapiens)	≥ 7.00
C[C@H](Sc1nncn1C)c1cccc(NC(=O)c2ccc3ccccc3n2)c1	Cbl-b (Homo sapiens)	≥ 6.30
C[C@@H]1CN(Cc2cc3c(c(C(F)(F)F)c2)CN(c2cccc(-c4c(-c5nncn5C)cnn4C)c2)C3=O)CCO1	Cbl-b (Homo sapiens)	≥ 7.00
C[C@H](Sc1nncn1C)c1cccc(NC(=O)c2cc(C(=O)N3CC(O)C3)ccn2)c1	Cbl-b (Homo sapiens)	≥ 6.30
C[C@@H]1CN(C)CCN1c1cc2c(c(C(F)(F)F)c1)CN(c1cccc(C3(Cc4nncn4C)COC3)c1)C2=O	Cbl-b (Homo sapiens)	≥ 7.00
C[C@H](Sc1nncn1C)c1cccc(NC(=O)c2cc(C(=O)N3CCC[C@H](O)C3)ccn2)c1	Cbl-b (Homo sapiens)	≥ 5.00
Cn1cnnc1CC1(c2cccc(N3Cc4c(cc(CN5CCO[C@H](CO)C5)cc4C(F)(F)F)C3=O)c2)COC1	Cbl-b (Homo sapiens)	≥ 7.00
C[C@H](Sc1nncn1C)c1cccc(NC(=O)c2cc(C3(O)COC3)cc(C(F)(F)F)n2)c1	Cbl-b (Homo sapiens)	≥ 6.00
C[C@H](Sc1nncn1C)c1ccnc(NC(=O)c2cccc(C(C)(F)F)n2)c1	Cbl-b (Homo sapiens)	≥ 6.00
Cn1cnnc1C(F)(F)[C@](C)(F)c1cccc(N2Cc3c(cc(CN4CC[C@@H](C#N)C4)cc3C(F)(F)F)C2=O)c1	Cbl-b (Homo sapiens)	≥ 7.00
C[C@H](Sc1nncn1C)c1ccnc(NC(=O)c2cccc(OC(F)(F)F)n2)c1	Cbl-b (Homo sapiens)	≥ 5.00
Cc1cc2c(c(C3CC3)n1)CN(c1cccc(C3(C(F)(F)c4nncn4C)COC3)c1)C2=O	Cbl-b (Homo sapiens)	≥ 6.00
Cn1cnnc1CC1(c2cccc(N3Cc4c(cc(CN5CC[C@@H](c6ccccc6)C5)cc4C(F)(F)F)C3=O)c2)COC1 [Example 662b]	Cbl-b (Homo sapiens)	≥ 7.00
C[C@@H](c1cc2c(c(C(F)(F)F)c1)CN(c1cccc(C3(C(F)(F)c4nncn4C)COC3)c1)C2=O)N1CC[C@H](F)C1	Cbl-b (Homo sapiens)	≥ 7.00
Cn1cnnc1[C@@H]1C[C@@H]1c1cccc(N2Cc3c(cccc3C(F)(F)F)C2=O)c1	Cbl-b (Homo sapiens)	≥ 6.30
Cn1cnnc1C(F)(F)C(C)(O)c1cccc(N2Cc3c(cccc3C(F)(F)F)C2=O)c1 (centres unmarked)	Cbl-b (Homo sapiens)	≥ 5.00
CC(Sc1nncn1C)c1cc(NC2CCOC2)nc(N2Cc3c(cccc3C(F)(F)F)C2=O)c1 (centres unmarked)	Cbl-b (Homo sapiens)	≥ 5.00
C[C@@H](Cc1nncn1C)c1cc(F)cc(N2Cc3c(cccc3C(F)(F)F)C2=O)c1 [Compound 281b]	Cbl-b (Homo sapiens)	≥ 5.00
Cn1cnnc1CC1(c2cccc(N3Cc4c(cc(C5=CCOC5)cc4C(F)(F)F)C3=O)c2)COC1	Cbl-b (Homo sapiens)	≥ 7.00
C[C@H](Cc1nncn1C)c1cccc(NC(=O)c2cc(C(=O)N3C[C@@H]4[C@@H](O)[C@@H]4C3)ccn2)c1	Cbl-b (Homo sapiens)	≥ 5.00
CC(Sc1nncn1C)c1cccc(NC(=O)c2ccc3ccccc3n2)c1 (centres unmarked)	Cbl-b (Homo sapiens)	≥ 6.00
CN1CC2CCC1CN2c1cc2c(c(C(F)(F)F)c1)CN(c1cccc([C@@](C)(F)C(F)(F)c3nncn3C)c1)C2=O (some centres unmarked)	Cbl-b (Homo sapiens)	≥ 7.00
Cn1cnnc1[C@@H](F)C1(c2cccc(N3Cc4c(cc(CN5CCC(F)CC5)cc4C(F)(F)F)C3=O)c2)COC1 [Example 670a]	Cbl-b (Homo sapiens)	≥ 7.00
C[C@H](Cc1nccn1C)c1cccc(NC(=O)c2cc(C(=O)N3CC[C@H](O)C3)ccn2)c1 [Compound 252a]	Cbl-b (Homo sapiens)	≥ 5.00
CC(c1nncn1C)C1(c2cccc(N3Cc4c(cc(CN5CCC6(CC6)C5)cc4C(F)(F)F)C3=O)c2)COC1 (centres unmarked)	Cbl-b (Homo sapiens)	≥ 6.00
C[C@H](c1cc2c(c(C(F)(F)F)c1)CN(c1cccc(C3(C(F)(F)c4nncn4C)COC3)c1)C2=O)N1CC[C@H](F)C1	Cbl-b (Homo sapiens)	≥ 7.00
C[C@H](Sc1nncn1C)c1cccc(NC(=O)c2cc(CCO)ccn2)c1	Cbl-b (Homo sapiens)	≥ 5.00
Cc1cc(C(=O)Nc2cccc([C@]3(Cc4nncn4C)CCOC3)c2)nc(C2CC2)n1 (single isomer, unassigned) [Compound 534a]	Cbl-b (Homo sapiens)	≥ 6.52
Cc1cnnn1C[C@@H](C)c1cccc(NC(=O)c2cccc(C(F)(F)F)n2)c1 [Compound 312a]	Cbl-b (Homo sapiens)	≥ 6.52

----------
study_target: Cbl-b (Homo sapiens, UniProt Q13191)
Sequence (Q13191 36-427): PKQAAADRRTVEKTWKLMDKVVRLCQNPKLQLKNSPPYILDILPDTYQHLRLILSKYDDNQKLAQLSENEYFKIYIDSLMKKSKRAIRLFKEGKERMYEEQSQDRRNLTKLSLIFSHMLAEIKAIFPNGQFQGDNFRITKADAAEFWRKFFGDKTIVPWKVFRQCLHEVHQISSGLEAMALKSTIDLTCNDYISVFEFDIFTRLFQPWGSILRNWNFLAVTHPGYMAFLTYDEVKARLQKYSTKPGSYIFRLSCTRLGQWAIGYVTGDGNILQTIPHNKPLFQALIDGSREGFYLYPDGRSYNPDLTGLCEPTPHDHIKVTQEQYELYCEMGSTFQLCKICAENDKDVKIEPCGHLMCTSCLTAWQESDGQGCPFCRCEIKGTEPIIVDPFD
experimental_details: Cbl-b activity assay (Cbl-b inhibition assay), TR-FRET of Cbl-b interaction with UbcH5B-Ub
Format: biochemical
test_parameters: assay buffer with 100 mM NaCl, 60 nM Src kinase; read-out: Cbl-b activity IC50
reported_endpoint: IC50

molecule	test_result
Cn1cnnc1CC1(c2cccc(N3Cc4c(cc(CN5CCC6(CC6)C5)cc4C(F)(F)F)C3=O)c2)CCC1	< 0.1 µM
C[C@H](Cc1nncn1C)c1cccc(NC(=O)c2cc(O[C@H]3CC[C@@H](O)C3)ccn2)c1	0.301 to 1 µM
Cn1cnnc1CC1(c2cccc(N3Cc4c(cc(CN5CC6CC6(C)C5)cc4C(F)(F)F)C3=O)c2)COC1 (stereo not drawn)	< 0.1 µM
Cc1cnnn1CC(C)c1cccc(NC(=O)c2cccc(C(F)(F)F)n2)c1 (stereo not drawn)	0.301 to 1 µM
Cn1cnnc1CC1(c2cccc(N3Cc4c(cc(CN5CC[C@H](F)C5)cc4C(F)(F)F)C3=O)c2)COC1	< 0.1 µM
C[C@H](Sc1nncn1C)c1cccc(NC(=O)c2cccc(N(C)C)c2)c1	> 10 µM
Cn1cnnc1CC1(c2cccc(N3Cc4c(cc(CN5CC6(CC6)C5)cc4C(F)(F)F)C3=O)c2)COC1	< 0.1 µM
Cn1cnnc1CC1(c2cccc(N3Cc4c(cc(CN5CCO[C@H](CO)C5)cc4C(F)(F)F)C3=O)c2)COC1	< 0.1 µM
C[C@H](Sc1nncn1C)c1ccnc(NC(=O)c2ccc(Cl)c(C(F)(F)F)n2)c1	1 to 3 µM
C[C@H](Cc1nncn1C)c1cc(OCCO)nc(N2Cc3c(cccc3C(F)(F)F)C2=O)c1	0.301 to 1 µM
COC1CN(Cc2cc3c(c(C(F)(F)F)c2)CN(c2cccc([C@@](C)(F)C(F)(F)c4nncn4C)c2)C3=O)C1	< 0.1 µM
Cc1c[nH]nc1S[C@@H](C)c1ccnc(NC(=O)c2ccc3ccccc3n2)c1 [Compound 128a]	1 to 3 µM
Cn1cnnc1CC1(c2cccc(N3Cc4c(ccc(F)c4C4CC4)C3=O)c2)COC1	0.1 to 0.3 µM
Cn1cnnc1CC1(c2cccc(NC(=O)c3cc(CN4CCC4)nc(C4CC4)n3)c2)COC1	< 0.1 µM
C[C@H](Cc1nncn1C)c1cccc(N2Cc3c(cc(-c4ccn[nH]4)cc3C(F)(F)F)C2=O)c1	< 0.1 µM
CNc1cc([C@H](C)Cc2nncn2C)cc(N2Cc3c(cccc3C(F)(F)F)C2=O)n1	< 0.1 µM
C[C@H](Sc1nncn1C)c1cccc(NC(=O)c2ccnc(C(F)(F)F)n2)c1	0.301 to 1 µM
CC(O)C1CN(C(=O)c2ccnc(C(=O)Nc3cccc([C@H](C)Cc4nncn4C)c3)c2)C1 (stereo partly drawn)	3 to 10 µM
Cc1cc(C(=O)Nc2cccc([C@H](C)Sc3nncn3C)c2)nc(C(F)(F)F)c1	< 0.1 µM
C[C@H](Sc1nncn1C)c1ccc(F)c(NC(=O)c2ccc3ccccc3n2)c1 [Compound 96a]	1 to 3 µM
C[C@H](Cc1nncn1C)c1cc(C2=CCOCC2)nc(N2Cc3c(cccc3C(F)(F)F)C2=O)c1	0.301 to 1 µM
C[C@H](c1cc2c(c(C(F)(F)F)c1)CN(c1cccc(C3(Cc4nncn4C)COC3)c1)C2=O)N1C[C@H]2C[C@H]2C1 [Compound 541b]	< 0.1 µM
C[C@H](Cc1nncn1C)c1cccc(N2Cc3c(cc(CN4CC(O)C4)cc3C(F)(F)F)C2=O)c1	< 0.1 µM
Cn1cnnc1CC1(c2cccc(N3Cc4c(cc(CN5CCOC6(CC6)C5)cc4C(F)(F)F)C3=O)c2)COC1	< 0.1 µM
Cc1c[nH]nc1C[C@H](C)c1cccc(N2Cc3c(cccc3C(F)(F)F)C2=O)c1 (single isomer, unassigned) [Compound 270a]	0.301 to 1 µM
CC(C)c1nccc2c1CN(c1cccc([C@H](C)Cc3nncn3C)c1)C2=O	0.301 to 1 µM
Cn1cnnc1CC1(c2cccc(N3Cc4c(cc(CC5CNCCC5=O)cc4C(F)(F)F)C3=O)c2)COC1 (stereo not drawn)	< 0.1 µM
Cc1nc2cc([C@H](C)Sc3nncn3C)cc(NC(=O)c3cccc(C(F)(F)F)n3)c2o1 [Compound 130a]	0.301 to 1 µM
Cc1cc(C(=O)Nc2cccc(C3(Cc4nncn4C(F)F)COC3)c2)nc(C2CC2)n1	< 0.1 µM
Cn1cnnc1CC1(c2cccc(NC(=O)c3cc(CN4C[C@H]5C[C@H]5C4)cc(C4CC4)n3)c2)COC1	< 0.1 µM
